Measured pIC50 of individual entries
- testedSystem: UniProt:Q9H9B1
- Sequence (Q9H9B1 1-1298): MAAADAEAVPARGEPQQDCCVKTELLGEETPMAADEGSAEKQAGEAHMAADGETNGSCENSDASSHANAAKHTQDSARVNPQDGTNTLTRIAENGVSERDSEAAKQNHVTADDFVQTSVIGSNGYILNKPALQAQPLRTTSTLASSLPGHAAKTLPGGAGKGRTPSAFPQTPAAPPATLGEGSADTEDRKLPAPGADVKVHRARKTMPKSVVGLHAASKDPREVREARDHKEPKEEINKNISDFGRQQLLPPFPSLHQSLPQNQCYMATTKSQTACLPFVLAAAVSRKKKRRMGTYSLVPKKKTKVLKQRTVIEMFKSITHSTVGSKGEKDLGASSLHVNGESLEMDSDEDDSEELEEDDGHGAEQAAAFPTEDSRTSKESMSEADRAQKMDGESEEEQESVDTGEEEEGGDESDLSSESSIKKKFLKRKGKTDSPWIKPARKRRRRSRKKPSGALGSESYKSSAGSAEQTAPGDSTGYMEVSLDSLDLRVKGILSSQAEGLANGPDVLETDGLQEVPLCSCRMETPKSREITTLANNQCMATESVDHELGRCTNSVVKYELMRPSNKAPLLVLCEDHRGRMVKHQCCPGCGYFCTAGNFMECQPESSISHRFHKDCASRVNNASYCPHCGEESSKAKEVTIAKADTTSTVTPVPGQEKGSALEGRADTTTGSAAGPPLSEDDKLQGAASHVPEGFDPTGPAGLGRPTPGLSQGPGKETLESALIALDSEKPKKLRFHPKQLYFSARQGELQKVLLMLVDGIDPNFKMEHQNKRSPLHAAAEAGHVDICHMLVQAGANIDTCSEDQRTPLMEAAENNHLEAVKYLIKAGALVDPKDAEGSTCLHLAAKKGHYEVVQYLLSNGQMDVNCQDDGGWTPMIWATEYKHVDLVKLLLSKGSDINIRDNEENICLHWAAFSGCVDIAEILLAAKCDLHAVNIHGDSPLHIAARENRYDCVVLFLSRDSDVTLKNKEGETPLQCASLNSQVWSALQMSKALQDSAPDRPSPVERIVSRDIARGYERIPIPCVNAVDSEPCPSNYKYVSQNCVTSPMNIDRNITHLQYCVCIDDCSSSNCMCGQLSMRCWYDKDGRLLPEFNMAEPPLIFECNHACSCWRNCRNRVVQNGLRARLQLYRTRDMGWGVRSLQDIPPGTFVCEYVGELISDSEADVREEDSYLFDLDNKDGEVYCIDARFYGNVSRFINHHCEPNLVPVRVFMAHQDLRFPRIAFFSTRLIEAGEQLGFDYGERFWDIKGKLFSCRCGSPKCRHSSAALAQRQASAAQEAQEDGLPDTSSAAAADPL
- assayMethodText: EHMT1 enzyme assay on peptide substrate (EHMT1 PEP)
- Assay type: biochemical
- testParameters: Table VI; read-out: EHMT1 PEP IC50
pIC50: −log10 of the molar value.

Completed entries (count: 5):
COc1cc(N(C)C2CCNCC2)ncc1OCC1CCN(C)C1 (stereo not drawn) [Compound 635]    5.00 to 6.00
CNc1cc(C)nc(Nc2ccc(OC)c(CNCCN3CC[C@@H](F)C3)c2)n1    > 7.00
COc1cnc(Nc2cccc3[nH]nnc23)cc1OCCCN1CCCC1    < 5.00
CNCCCOc1cc(Nc2nccc(NC)n2)cnc1OC    6.00 to 7.00
CNc1ccnc(Nc2ccc(OC)c(OC[C@@H]3CCN(C4CC4)C3)c2)n1    > 7.00

What the record says about CCN1CC(NCc2cc(Nc3nc(C)cc(NC)n3)ccc2OC)C1 : pIC50 is 5.00 to 6.00

The recorded pIC50 for entry CCc1cc(NC)nc(Nc2ccc(OC)c(OC[C@@H]3CCN(CC)C3)c2)n1 equals > 7.00

Short answer for CNc1cc(C2CCN(C3CCOC3)CC2)c2cc(OC)c(OCCCN3CCCC3)cc2n1 (stereo not drawn) : pIC50 was > 7.00

Per the records, this compound ( CCN1CC(COc2cc(Nc3nc(C)cc4[nH]ncc34)ncc2OC)C1 ) has pIC50 equal to > 7.00
